protocolDetails: qHTS Assay for inhibitors of the human cytomegalovirus (HCMV); also: % is scaled to controls: 0 for no effect and ±100 for the full control effect
conditionNotes: HFF cells, HCMV-luciferase reporter, 72 h; at 57.5 µM; stronger effect = lower value
The campaign covered roughly 410,000 compounds. About 18,000 (4.4%) were called active. Not shown: some 7% with an inconclusive outcome. This is one part of a sample in which actives are shown more often than they occur.
testReadout: activity change, negative = inhibition (%)

molecule: Cc1nc2c(C(=O)NCc3ccc4c(c3)OCO4)c[nH]n2c(=O)c1Cc1ccccc1F
measValue: -7.59

molecule: Cc1nc2ccn(Cc3cccs3)c(=O)c2cc1C(=O)NCc1ccc(Cl)cc1
measValue: 0.24

molecule: Cc1ccc2[nH]c(=O)c(CN3CCCCC3)c(-c3ccccc3)c2c1
measValue: 11.7

molecule: Cc1[nH]c2ccccc2c1C(=O)CN1CCCC(C)C1 (configuration not stated)
measValue: 64

molecule: NN=C(NN=Cc1ccccc1)c1ccccc1
measValue: 49.5

molecule: O=C(CN1CCSCC1)N/N=C/c1ccc(F)cc1F
measValue: -10.6

molecule: O=C(N/N=C/c1ccccc1O)/C(=C/c1ccccc1)CCO
measValue: -88.1

----------
Below is a list of entries, each paired with its recorded activity change, negative = inhibition value.
protocolDetails: qHTS Assay for inhibitors of the human cytomegalovirus (HCMV); also: % is scaled to controls: 0 for no effect and ±100 for the full control effect
conditionNotes: HFF cells, HCMV-luciferase reporter, 72 h; at 57.5 µM; stronger effect = lower value
Protocol: NCGC Assay Overview: Infection with human cytomegalovirus (HCMV) continues to pose significant threats for pregnant women and immunocompromised hosts. […] This is a cell-based assay for HCMV inhibition in HFFs cells. […] At 72 h post infection cell lysates were collected and luciferase activity was determined using the Glomax-Multi + Detection System (Promega, Madison, WI). […]
Among all 410,000 compounds or so, about 18,000 (4.4%) were called active. Inconclusive results (about 7%) are left out. Shown is part of a subset that was picked to be rich in actives.
testReadout: activity change, negative = inhibition (%)

compound: NS(=O)(=O)c1ccc(CCNC(=O)COC(=O)COc2cccc(C(F)(F)F)c2)cc1
measValue: -3.4

compound: Cc1ccccc1CNC(=O)CSc1nnc(C)c2c(C)n(-c3ccccc3)nc12
measValue: -3

compound: CC(C)Sc1oc(-c2cccs2)nc1S(=O)(=O)c1ccc(Cl)cc1
measValue: 0.0343

compound: COc1ccc(NC(=O)C(C)SCc2ccccc2)cc1 (stereo unspecified)
measValue: -10.8

compound: COc1ccc(-c2nnc(SCC(=O)Nc3ccc(C(C)C)cc3)nc2-c2ccc(OC)c(OC)c2)cc1OC
measValue: 2

compound: Cn1c(N)c(C(=O)COC(=O)COc2ccc(Cl)cc2)c(=O)n(C)c1=O
measValue: -16.9

compound: O=C(Nc1cccn(Cc2ccccc2Cl)c1=O)NC1CCCCC1
measValue: -37.7

compound: CCc1ccc(OCC(=O)OCC(=O)c2c(N)n(C)c(=O)n(C)c2=O)cc1
measValue: -68.3

compound: COc1ccc(-c2cn3nc(N4CCCC(C(=O)NCCCOC(C)C)C4)sc3n2)cc1 (stereo unspecified)
measValue: 0

compound: Cn1c(N)c(C(=O)COC(=O)c2ccc3ccccc3c2)c(=O)n(C)c1=O
measValue: 7.39

compound: CC(Sc1nnc2c(n1)C1CCC2(C)C1(C)C)C(=O)Nc1ccccc1 (stereo unspecified)
measValue: -60.9

compound: Cc1ccc(-n2nc3c(=O)n(C(C)C(=O)NCc4ccc5c(c4)OCO5)nc(C)c3c2C)cc1 (stereo unspecified)
measValue: -83.4

compound: O=C(CCN1CCc2ccccc2C(O)(c2ccccc2)C1)c1ccc2c(c1)OCCO2 (stereo unspecified)
measValue: 25.7

compound: CC(NCCc1ccc(S(N)(=O)=O)cc1)C(=O)NCc1ccccc1 (stereo unspecified)
measValue: -27.8

compound: Cn1c(N)c(C(=O)COC(=O)c2cnc(Cl)c(Cl)c2)c(=O)n(C)c1=O
measValue: -99.9

compound: NS(=O)(=O)c1ccc(N=Nc2c(O)[nH]c3ccc(Br)cc23)cc1
measValue: -60.1

compound: Cc1ccc(-c2nnc(SCC(=O)NCc3ccccc3)nc2-c2ccc(C)cc2)cc1
measValue: -16.5

compound: COc1ccc(CNc2ncnc3ccccc23)cc1
measValue: -91.4

compound: COc1cc2c(cc1OC)C(c1cccc([N+](=O)[O-])c1)=NCC2
measValue: 54.4

compound: Cc1cc(N2CCN(c3cccc(C(F)(F)F)c3)CC2)n2nc(-c3ccccc3)nc2n1
measValue: -20.6

compound: O=C(Nc1nnc([C@H]2C[C@H](O)[C@@H](CO)O2)s1)c1cccc(Cl)c1
measValue: 40.2

compound: CC(=O)c1c(C)[nH]c(C(=O)COc2ccc3c(C)cc(=O)oc3c2)c1C
measValue: -31.5

compound: COc1ccccc1NC(=O)C1CCCN1S(=O)(=O)c1ccc(Cl)cc1 (stereo unspecified)
measValue: 0.0905

compound: CCCCOc1ccc(C(=O)NCC(=O)OCC(=O)c2c(N)n(C)c(=O)n(C)c2=O)cc1
measValue: -28.8

compound: COc1ccc(CCNCc2c(C(=O)O)c(C)n(Cc3cccc(C)c3)c2C)cc1OC
measValue: -1.54

compound: CCc1nc2c(OCCOc3ccccc3)cccn2c1N(C)C(=O)c1ccccc1F
measValue: -30.7

compound: Cc1cccc(N=Nc2c(O)[nH]c3ccc(F)cc23)c1
measValue: 101

compound: CCOC(=O)C1=NN(c2ccc(Cl)cc2)/C(=C/C2=NCCc3cc(OC)c(OC)cc32)S1
measValue: 27.1

compound: Cc1ccccc1NC(=O)c1ccc(COc2ccc3c(C)cc(=O)oc3c2)cc1
measValue: 10.2

compound: Cc1nn(C(C)C(=O)N2CCOCC2)c(=O)c2nn(-c3ccccc3)c(C)c12 (stereo unspecified)
measValue: -17.5

compound: Cc1cc(C(=O)OCC(=O)c2c(N)n(C)c(=O)n(C)c2=O)c(C)o1
measValue: -20.6
